Recorded pIC50 for the following compounds
Tested on: pERK in A549 cells
testProtocol: Inhibition of KRas phosphorylation of ERK (Cisbio HTRF pERK assay)
experimentalSetup: Homo sapiens, A549, read-out: Inhibition (HTRF IC50) of KRas-mediated Phosphorylation of ERK, A549
Formally, pIC50 is defined as -log10 of the concentration c, with c in mol/L.

C[C@@]1(O)CCCN(c2nc(OC[C@@]34CCCN3C[C@H](F)C4)nc3c(F)c(-c4cc(O)cc5ccc(F)c(Cl)c45)ncc23)C1 : 7.13
CCc1c(F)ccc2cc(O)cc(-c3ncc4c(N5CCC[C@@](C)(O)C5)nc(OC[C@@]56CCCN5[C@@H](COC(=O)N(C)C)CC6)nc4c3F)c12 : 7.17
CCc1c(F)ccc2cc(O)cc(-c3ncc4c(N5CCCOC(CO)C5)nc(OC[C@@]56CCCN5C[C@H](F)C6)nc4c3F)c12 (stereo partly drawn) : 7.04
CCc1c(F)ccc2cc(O)cc(-c3ncc4c(N5CCC[C@@](C)(O)C5)nc(OCC5(CN6CCOCC6)CC5)nc4c3F)c12 : 7.89
CCc1c(F)ccc2cc(O)cc(-c3ncc4c(N5CCOCC(OC)C5)nc(OC[C@@]56CCCN5C[C@H](F)C6)nc4c3F)c12 (stereo partly drawn) : 6.84

# pIC50 lookup, item C#Cc1c(F)ccc2cc(O)cc(-c3ncc4c(N5CCC[C@@](C)(O)C5)nc(OC[C@@]56CCCN5C[C@H](F)C6)nc4c3F)c12 7.37

Another compound to check: CCc1c(F)ccc2cc(O)cc(-c3ncc4c(N5CCC[C@@](C)(O)C5)nc(OC[C@]56CCCN5[C@H](CO)CC6)nc4c3F)c12 7.19

Now the same for CCc1c(F)ccc2cc(O)cc(-c3ncc4c(N5CCCC6(CCS(=O)(=O)C6)C5)nc(OC[C@@]56CCCN5C[C@H](F)C6)nc4c3F)c12 (stereo partly drawn) 6.46

Quick one: CCc1c(F)ccc2cc(O)cc(-c3ncc4c(N5C[C@@H]6C[C@H](C5)[C@H](O)C6)nc(OC[C@@]56CCCN5C[C@H](F)C6)nc4c3F)c12 (single isomer, unassigned) 8.70

###

testSystem: KRas G12S (Homo sapiens, UniProt P01116, G12S);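 also: TR-FRET displacement binding to KRas, read after one hour incubation at room temperature, IC50 from four-parameter fit of percent of control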
Sequence (P01116 1-169 isoform P01116-2 G12S): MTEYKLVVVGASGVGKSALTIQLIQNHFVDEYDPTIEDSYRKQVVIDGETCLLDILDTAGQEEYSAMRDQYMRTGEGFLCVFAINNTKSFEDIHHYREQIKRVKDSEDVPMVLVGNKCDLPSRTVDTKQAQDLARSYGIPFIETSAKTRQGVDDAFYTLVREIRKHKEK
testProtocol: biochemical
hey, just use Y if measured IC50 is less than 1000 nM, otherwise N

Worked examples follow.
OC12CC(Nc3nc(OCC45CCCN4CCC5)nc4c(F)c(-c5cccc6cccc(F)c56)ncc34)(C1)C2 : N
C#Cc1c(F)ccc2cc(O)cc(-c3ncc4c(N5C[C@@H]6C[C@H](C5)[C@H](O)C6)nc(OC[C@@]56CCCN5C[C@H](F)C6)nc4c3F)c12 : Y
OCC1CN(c2nc(OCC34CCCN3CCC4)nc3c(F)c(-c4cccc5cccc(F)c45)ncc23)CCC1O (stereo not drawn) : N
Cc1cc2[nH]ncc2c(-c2ncc3c(N4CCCC(C)(O)C4)nc(OC[C@@]45CCCN4C[C@H](F)C5)nc3c2F)c1C (stereo partly drawn) : Y
Fc1c(-c2cccc3cccc(F)c23)ncc2c(N3CCCC4(CC4)C3)nc(OCC34CCCN3CCC4)nc12 : N
NS(=O)(=O)CC1CN(c2nc(OCC34CCCN3CCC4)nc3c(F)c(-c4cccc5cccc(F)c45)ncc23)CCO1 (stereo not drawn) : Y
O=S1(=O)CC[C@H](CNc2nc(OCC34CCCN3CCC4)nc3c(F)c(-c4cccc5cccc(F)c45)ncc23)N1 : N
CCc1c(F)ccc2cccc(-c3ncc4c(N5CCCC6(CNC(=O)C6)C5)nc(OC[C@@]56CCCN5C[C@H](F)C6)nc4c3F)c12 (stereo partly drawn) : Y

Criterion: IC50 strictly below 1000 nM. Is it met by O=C1NCC2(CCN(c3nc(OCC45CCCN4CCC5)nc4c(F)c(-c5cccc6cccc(F)c56)ncc34)CC2)N1 ? N

What do you have for NC(=O)CCNc1nc(OCC23CCCN2CCC3)nc2c(F)c(-c3cccc4cccc(F)c34)ncc12 ? N

Now the same for CCc1c(F)ccc2cc(O)cc(-c3ncc4c(N5CCC[C@@](C)(O)C5)nc(OCC56CCCN5CCC6)nc4c3F)c12 Y

Then O=C1CC2(CCCN(c3nc(OCC45CCCN4CCC5)nc4c(F)c(-c5cccc6cccc(CF)c56)ncc34)C2)N1 (stereo not drawn) ? N

Try this molecule next: CCc1c(F)ccc2cc(O)cc(-c3ncc4c(N5CCCCC5)nc(OC[C@@H]5C[C@@H](O)CN5C)nc4c3F)c12 Y

And the next one, CC1(O)CCCN(c2nc(OCC34CCCN3CCC4)nc3c(F)c(-c4cccc5cccc(C6CC6)c45)ncc23)C1 (stereo not drawn) ? Y

Try OC1CC2(CCCN(c3nc(OCC45CCCN4CCC5)nc4c(F)c(-c5cccc6cccc(F)c56)ncc34)C2)C1 (stereo not drawn) next. N

Same thing, different molecule: C[C@@]1(O)CCCN(c2nc(OC[C@@]34CCCN3C[C@H](F)C4)nc3c(F)c(-c4c5ccccc5cc5[nH]ncc45)ncc23)C1 Y

// query: Cc1cc(-c2ncc3c(N4CCCC(C)(O)C4)nc(OCC45CCCN4CCC5)nc3c2F)c2cn[nH]c2c1 (stereo not drawn) N

Follow-up entry: O=C1CC(CNc2nc(OCC34CCCN3CCC4)nc3c(F)c(-c4cccc5cccc(F)c45)ncc23)C(=O)N1 (stereo not drawn) Y
